Target: Aryl hydrocarbon receptor (Rattus norvegicus)
Sequence (P41738 10-853): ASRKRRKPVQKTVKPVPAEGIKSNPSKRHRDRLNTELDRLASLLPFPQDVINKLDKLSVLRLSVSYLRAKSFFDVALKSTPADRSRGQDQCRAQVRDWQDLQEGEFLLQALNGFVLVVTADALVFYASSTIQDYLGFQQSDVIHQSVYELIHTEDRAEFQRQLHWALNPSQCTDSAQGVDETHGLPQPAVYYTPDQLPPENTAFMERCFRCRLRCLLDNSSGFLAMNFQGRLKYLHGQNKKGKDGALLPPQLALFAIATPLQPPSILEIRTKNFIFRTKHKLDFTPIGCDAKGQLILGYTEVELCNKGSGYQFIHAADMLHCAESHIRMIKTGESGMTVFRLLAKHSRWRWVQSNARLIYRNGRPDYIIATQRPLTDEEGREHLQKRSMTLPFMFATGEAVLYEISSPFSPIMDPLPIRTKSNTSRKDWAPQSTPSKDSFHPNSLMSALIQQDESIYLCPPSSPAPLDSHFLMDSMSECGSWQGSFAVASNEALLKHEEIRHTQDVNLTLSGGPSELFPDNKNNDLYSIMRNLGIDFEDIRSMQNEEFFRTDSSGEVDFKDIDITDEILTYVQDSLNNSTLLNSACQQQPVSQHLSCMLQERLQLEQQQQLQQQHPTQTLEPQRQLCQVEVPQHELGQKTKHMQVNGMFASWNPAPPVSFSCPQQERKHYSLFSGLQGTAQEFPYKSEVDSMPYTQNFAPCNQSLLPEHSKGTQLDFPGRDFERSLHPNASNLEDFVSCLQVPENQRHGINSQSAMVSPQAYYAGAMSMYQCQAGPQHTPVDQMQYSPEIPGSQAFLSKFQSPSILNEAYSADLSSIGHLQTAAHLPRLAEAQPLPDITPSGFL
Settings: input of the ToxPi score, values up to 1.00
Measurement Label: log(1/EC10) AhR
Format: numeric value only, no unit, no commentary.

Which value of log(1/EC10) AhR has been reported for CC(C)(c1ccc(O)cc1)c1ccc(O)cc1 [BPA, 4,4'-(Propane-2,2-diyl)diphenol, reference compound] in the records? 0.79

Consider the compound "Oc1ccc(Sc2ccc(O)cc2)cc1" and give its measured log(1/EC10) AhR. 0.82

Look at this compound and give its reported log(1/EC10) AhR. O=C(OCc1ccccc1)c1ccc(O)cc1 [BzPB, Benzyl 4-hydroxybenzoate] 0.80

###

System: HEK293T (ERα)
Details: cytotoxicity, HEK293 (ERα assay cells)
Measurement Label: IC10, HEK293, ERα (µM)
Please respond with the number in µM and leave the unit unwritten.

State the recorded IC10, HEK293, ERα for this entry: Oc1ccc(Cc2ccc(O)cc2)cc1 [BPF, Bis(4-hydroxyphenyl)methane] 164

Look at this compound and give its reported IC10, HEK293, ERα. Cc1cc(Cc2cc(C)c(O)c(C)c2)cc(C)c1O [TMBPF, Bis(3,5-dimethyl-4-hydroxyphenyl)methane] 6.58

Please look up its IC10, HEK293, ERα: C=CCOc1ccc(S(=O)(=O)c2ccc(O)cc2)cc1 [BPS-MAE, 4-[[4-(Allyloxy)phenyl]sulfonyl]phenol] 244

I'd like to know its IC10, HEK293, ERα. The compound in question is CC(C)(c1ccc(O)c(-c2ccccc2)c1)c1ccc(O)c(-c2ccccc2)c1 [BPPH, 2,2-Bis(2-hydroxy-5-biphenylyl)propane] 8.3

For "CC(C)c1cc(C(C)(C)c2ccc(O)c(C(C)C)c2)ccc1O" , what is its reported IC10, HEK293, ERα? 6.95

# IC10, HEK293, ERα lookup, item O=S(=O)(c1ccc(O)cc1)c1ccc(OCc2ccccc2)cc1 [BPS-MPE, 4-[4-(benzyloxy)benzenesulfonyl]phenol] 112
